# Tested on: E. coli wild-type GFP strain growth, fluorescence, 24 h
# method_summary: wild-type E. coli growth inhibition versus H69 humanized strain – H69 mutant RFP, wild-type GFP, cherry-pick, dose response (AID 977621);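 further: wild-type GFP and H69 mutant RFP strains grown together 50/50 in each well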
Records with an inconclusive call do not appear. Active and inactive are the calls of the source.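 How the source made its calls: active means Wild-type ribosome reporter drop at least double the humanized mutant ribosome reporter drop, growth loss under a set limit; inconclusive means no clear call, values can overlap the other calls; inactive means the rest.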
Catalogue of compounds with associated AC50

>  <compound>
CSc1nc(SCCN(C)C)c2c3c(sc2n1)COC(C)(C)C3

>  <AC50>
> 100 µM (inactive)

$$$$
>  <compound>
C=CCn1c(SCc2n[nH]c(=S)n2-c2ccccc2)nnc1-c1ccccc1

>  <AC50>
> 100 µM (inactive)

$$$$

The reported AC50 of the compound COC(=O)[C@H](Cc1c[nH]c2ccccc12)NCc1cccc(B(O)O)c1 was > 100 µM (inactive)

The reported AC50 of the compound CCCCNC(=O)c1cc2c(C)cc(C)cc2[nH]1 was > 100 µM (inactive)

The reported AC50 of the compound CS(=O)(=O)NCCSc1cc(C(F)(F)F)nc2ccccc12 was > 100 µM (inactive)

* * *

# Test system: E. coli wild-type GFP strain growth, fluorescence, 24 h
# method_summary: wild-type E. coli growth inhibition versus H69 humanized strain – H69 mutant RFP, wild-type GFP, cherry-pick, dose response (AID 977621);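 further: wild-type GFP and H69 mutant RFP strains grown together 50/50 in each well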
Inconclusive results are not listed. The source made the active and inactive calls.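 Rule for the calls: active = Wild-type ribosome reporter drop at least double the humanized mutant ribosome reporter drop, growth loss under a set limit; inconclusive = no clear call, values can overlap the other calls; inactive = the rest.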
Catalogue of compounds with associated AC50

>  <smiles_text>
Cc1ccc(-c2nc3ccc(NS(=O)(=O)c4ccccc4)cc3[nH]2)o1

>  <measured_on>
E. coli wild-type GFP strain growth, fluorescence, 24 h

>  <AC50>
> 100 µM (inactive)

$$$$
>  <smiles_text>
O=C(Nc1cccc(Cl)c1)N1C[C@H]2[C@@H](c3ccccc31)[C@H](CO)N2CC1CCCCC1

>  <measured_on>
E. coli wild-type GFP strain growth, fluorescence, 24 h

>  <AC50>
> 100 µM (inactive)

$$$$

The reported AC50 of the compound COc1ccc(NS(=O)(=O)c2ccc(NC(=O)c3ccccc3Br)cc2)nn1 was > 100 µM (inactive)

The reported AC50 of the compound O=C(CCC(=O)N1CCN(c2ccc(F)cc2)CC1)N1CCN(c2ccc(F)cc2)CC1 was > 100 µM (inactive)

The reported AC50 of the compound COc1ccccc1C1CCN(Cc2cccc([N+](=O)[O-])c2)CC1 was > 100 µM (inactive)

* * *

Catalogue of compounds with associated AC50
# Test system: E. coli wild-type GFP strain growth, fluorescence, 24 h
# method_summary: wild-type E. coli growth inhibition versus H69 humanized strain – H69 mutant RFP, wild-type GFP, cherry-pick, dose response (AID 977621);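 further: wild-type GFP and H69 mutant RFP strains grown together 50/50 in each well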
Records with an inconclusive call do not appear. Calls of active or inactive are those of the source.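 The calls were made as follows: active = Wild-type ribosome reporter drop at least double the humanized mutant ribosome reporter drop, growth loss under a set limit; inconclusive = no clear call, values can overlap the other calls; inactive = the rest.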

Example compounds with recorded AC50:
>  <smiles_text>
COc1ccc([C@H]2C[C@H](O)C[C@@H](CCn3cc(-c4ccccc4)nn3)O2)cc1

>  <AC50>
> 100 µM (inactive)

$$$$
>  <smiles_text>
Cc1ccc(Oc2ccc(S(=O)(=O)N3CCOCC3)cc2C(N)=O)cc1C

>  <AC50>
> 100 µM (inactive)

$$$$
>  <smiles_text>
O=S1(=O)N[C@@H](Cc2ccccc2)COc2cc(N3CCC[C@H]3CO)ccc21

>  <AC50>
> 100 µM (inactive)

$$$$
>  <smiles_text>
CC(C)Cc1nnc(NS(=O)(=O)c2ccccc2)s1

>  <AC50>
> 100 µM (inactive)

$$$$

Consider the additional compound presented here.
Entry Cc1ccc(NC(=O)c2ccc(Br)o2)cc1S(=O)(=O)N(C)C ; assay system E. coli wild-type GFP strain growth, fluorescence, 24 h; AC50 recorded at > 100 µM (inactive)
